Source: patent EP4624486A1

- study.target: GCG receptor (GCGR) (UniProt P47871 26-477, limits assumed)
- Sequence (P47871 26-477 limits assumed): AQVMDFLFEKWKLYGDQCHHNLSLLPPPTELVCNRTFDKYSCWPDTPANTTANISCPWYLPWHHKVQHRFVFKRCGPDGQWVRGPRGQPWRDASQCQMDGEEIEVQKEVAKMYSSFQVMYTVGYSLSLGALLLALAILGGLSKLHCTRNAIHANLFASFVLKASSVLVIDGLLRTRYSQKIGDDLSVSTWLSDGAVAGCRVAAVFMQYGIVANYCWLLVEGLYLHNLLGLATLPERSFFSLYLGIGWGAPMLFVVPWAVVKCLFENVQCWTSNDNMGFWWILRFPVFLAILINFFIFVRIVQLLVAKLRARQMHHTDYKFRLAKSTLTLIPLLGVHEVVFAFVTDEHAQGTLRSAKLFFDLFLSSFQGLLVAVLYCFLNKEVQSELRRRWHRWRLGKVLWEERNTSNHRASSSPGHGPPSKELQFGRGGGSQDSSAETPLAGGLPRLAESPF
- test.method.notes: cell-based or functional assay
Bridge positions count the residues as written; N and C are the ends. Square brackets hold non-standard residues; d marks the D form. Ends that are not written are not given here. αMeF = C[C@](N)(Cc1ccccc1)C(=O)O; αMeL = CC(C)C[C@](C)(N)C(=O)O; Aib = CC(C)(N)C(=O)O

binder	GCG EC50 (nM); cAMP, agonistic activity
Y[Aib]QGT[αMeF]TSDYSI[αMeL]KDKKAQ[Aib]AFIEYLLKGGPSSGAPPPS-NH2 (bridge 14-17; not fully specified (bridges); also: stapled body (lipidated) structure only in drawing chem0260) [Example 51]	0.025
Y[Aib]QGTFTSDYSI[αMeL]KDKKAQ[Aib]AFIEYLLEGGPSSGAPPPS-NH2 (linker 14-17 via (2-2-oxoethyl)‑glycine, AEEA, γGlu, 19‑phosphonononadecanoic acid) [Example 43]	0.042
